// reported inhibition at 0.01 µM per item
system_name: TrkC (Homo sapiens)
Construct: purchased Millipore or Kinome Scan (DiscoverX)
Sequence (Q16288 32-839): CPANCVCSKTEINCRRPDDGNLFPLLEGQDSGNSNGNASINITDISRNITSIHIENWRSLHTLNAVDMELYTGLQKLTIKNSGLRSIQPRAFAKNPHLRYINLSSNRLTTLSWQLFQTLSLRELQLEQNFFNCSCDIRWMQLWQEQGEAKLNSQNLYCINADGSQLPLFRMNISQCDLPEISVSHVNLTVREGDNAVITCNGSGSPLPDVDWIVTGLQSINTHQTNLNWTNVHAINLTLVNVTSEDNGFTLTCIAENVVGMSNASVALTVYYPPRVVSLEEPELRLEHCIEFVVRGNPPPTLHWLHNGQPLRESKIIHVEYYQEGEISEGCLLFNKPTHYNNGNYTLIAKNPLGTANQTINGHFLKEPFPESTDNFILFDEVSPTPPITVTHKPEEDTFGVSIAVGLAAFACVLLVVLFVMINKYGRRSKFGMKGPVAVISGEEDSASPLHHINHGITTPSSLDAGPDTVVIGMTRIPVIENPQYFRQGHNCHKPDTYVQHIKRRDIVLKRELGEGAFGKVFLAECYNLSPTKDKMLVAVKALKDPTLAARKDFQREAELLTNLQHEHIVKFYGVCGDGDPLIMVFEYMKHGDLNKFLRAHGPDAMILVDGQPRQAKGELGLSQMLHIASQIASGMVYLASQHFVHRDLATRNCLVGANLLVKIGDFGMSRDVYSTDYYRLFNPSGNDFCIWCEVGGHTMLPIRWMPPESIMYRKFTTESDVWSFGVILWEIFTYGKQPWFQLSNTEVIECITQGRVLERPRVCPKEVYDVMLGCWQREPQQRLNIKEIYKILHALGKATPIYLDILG
assay_procedure: Test for measuring inhibition of TrkC kinase (Millipore or Kinome Scan, manufacturer's protocols)
Type: biochemical
condition_parameters: read-out: Enzymatic inhibition at 10 nM (%) TrkC
Please respond with the number in % and leave the unit unwritten.

CN1CCN(c2ccc(C(=O)Nc3n[nH]c4ncc(S(=O)(=O)c5cc(F)cc(F)c5)cc34)c(NC3CCOCC3)c2)CC1: 96.8
CN1CCN(c2ccc(C(=O)Nc3n[nH]c4ncc(Sc5cc(F)cc(F)c5)cc34)c(NC3CCOCC3)c2)CC1: 64
CN1CCN(c2ccc(C(=O)Nc3n[nH]c4nc(N)c(Sc5cc(F)cc(F)c5)cc34)c(NC3CCOCC3)c2)CC1: 93.4

--- query ---
Qu. // returns reported inhibition at 0.01 µM for input `CN1CCN(c2ccc(C(=O)Nc3n[nH]c4ncc(S(=O)(=O)Nc5cc(F)cc(F)c5)cc34)c(NC3CCOCC3)c2)CC1`
Ans. 97.3

* * *

system_name: TrkA (Homo sapiens)
Construct: purchased Millipore or Kinome Scan (DiscoverX)
Sequence (P04629 33-796): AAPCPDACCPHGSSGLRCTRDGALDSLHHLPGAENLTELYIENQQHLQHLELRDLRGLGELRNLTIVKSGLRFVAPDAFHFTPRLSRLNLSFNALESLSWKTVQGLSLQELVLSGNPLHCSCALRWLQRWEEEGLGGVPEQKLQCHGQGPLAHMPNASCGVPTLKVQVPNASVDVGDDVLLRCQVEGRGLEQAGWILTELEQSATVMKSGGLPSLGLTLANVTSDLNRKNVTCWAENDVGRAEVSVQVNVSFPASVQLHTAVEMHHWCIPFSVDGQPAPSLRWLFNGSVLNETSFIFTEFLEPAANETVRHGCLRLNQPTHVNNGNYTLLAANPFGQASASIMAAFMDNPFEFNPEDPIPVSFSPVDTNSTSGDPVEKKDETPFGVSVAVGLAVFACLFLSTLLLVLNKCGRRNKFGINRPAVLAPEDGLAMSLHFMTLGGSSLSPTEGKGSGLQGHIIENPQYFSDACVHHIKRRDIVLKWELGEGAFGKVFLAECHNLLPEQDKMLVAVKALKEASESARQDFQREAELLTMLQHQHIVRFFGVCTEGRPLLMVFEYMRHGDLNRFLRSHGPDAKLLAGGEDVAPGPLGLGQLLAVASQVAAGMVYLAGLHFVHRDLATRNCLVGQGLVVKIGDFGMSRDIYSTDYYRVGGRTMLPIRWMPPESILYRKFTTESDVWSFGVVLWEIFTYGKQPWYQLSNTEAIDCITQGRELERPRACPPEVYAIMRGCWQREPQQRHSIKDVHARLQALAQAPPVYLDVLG
assay_procedure: Test for measuring inhibition of TrkA kinase (Millipore or Kinome Scan, manufacturer's protocols)
Format: biochemical
condition_parameters: read-out: Enzymatic inhibition at 10 nM (%) TrkA
experimental_readout: inhibition at 0.01 µM (%)
Please respond with the number in % and leave the unit unwritten.

Qu. // returns reported inhibition at 0.01 µM for input `CN1CCN(c2ccc(C(=O)Nc3n[nH]c4ncc(S(=O)(=O)Nc5cc(F)cc(F)c5)cc34)c(NC3CCOCC3)c2)CC1`
Ans. 99

Qu. // returns reported inhibition at 0.01 µM for input `CN1CCN(c2ccc(C(=O)Nc3n[nH]c4nc(N)c(Sc5cc(F)cc(F)c5)cc34)c(NC3CCOCC3)c2)CC1`
Ans. 97.4

Qu. // returns reported inhibition at 0.01 µM for input `CN1CCN(c2ccc(C(=O)Nc3n[nH]c4ncc(Sc5cc(F)cc(F)c5)cc34)c(NC3CCOCC3)c2)CC1`
Ans. 93.8

Qu. // returns reported inhibition at 0.01 µM for input `CN1CCN(c2ccc(C(=O)Nc3n[nH]c4ncc(Cc5cc(F)cc(F)c5)cc34)c(NC3CCOCC3)c2)CC1`
Ans. 55

Qu. // returns reported inhibition at 0.01 µM for input `CN1CCN(c2ccc(C(=O)Nc3n[nH]c4ncc(S(=O)(=O)c5cc(F)cc(F)c5)cc34)c(NC3CCOCC3)c2)CC1`
Ans. 97.8

* * *

system_name: TrkB (Homo sapiens, UniProt Q16620)
Construct: purchased Millipore or Kinome Scan (DiscoverX)
Sequence (Q16620 32-822): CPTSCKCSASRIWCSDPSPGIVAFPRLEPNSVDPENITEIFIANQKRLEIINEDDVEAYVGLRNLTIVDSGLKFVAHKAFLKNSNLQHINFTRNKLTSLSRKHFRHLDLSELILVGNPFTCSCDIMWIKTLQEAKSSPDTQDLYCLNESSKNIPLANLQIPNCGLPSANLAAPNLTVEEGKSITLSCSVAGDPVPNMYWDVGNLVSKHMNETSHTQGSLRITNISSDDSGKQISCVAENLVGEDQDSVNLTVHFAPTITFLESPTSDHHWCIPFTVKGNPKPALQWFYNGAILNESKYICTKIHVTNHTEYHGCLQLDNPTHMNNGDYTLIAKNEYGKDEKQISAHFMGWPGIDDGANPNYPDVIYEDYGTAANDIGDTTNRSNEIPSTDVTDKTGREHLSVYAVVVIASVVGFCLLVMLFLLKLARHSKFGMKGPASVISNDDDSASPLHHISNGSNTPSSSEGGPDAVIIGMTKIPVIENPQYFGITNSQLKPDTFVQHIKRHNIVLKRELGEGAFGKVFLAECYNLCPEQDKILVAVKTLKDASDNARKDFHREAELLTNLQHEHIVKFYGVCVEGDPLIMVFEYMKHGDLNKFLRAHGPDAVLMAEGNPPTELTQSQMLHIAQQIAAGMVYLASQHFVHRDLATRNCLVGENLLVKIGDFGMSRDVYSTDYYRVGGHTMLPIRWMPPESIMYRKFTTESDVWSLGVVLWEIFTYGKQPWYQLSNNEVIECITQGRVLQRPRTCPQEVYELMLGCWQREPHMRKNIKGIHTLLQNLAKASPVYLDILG
assay_procedure: Test for measuring inhibition of TrkB kinase (Millipore or Kinome Scan, manufacturer's protocols)
Type: biochemical
condition_parameters: read-out: Enzymatic inhibition at 10 nM (%) TrkB
// reported inhibition at 0.01 µM per item
Value and unit, in that order.

CN1CCN(c2ccc(C(=O)Nc3n[nH]c4nc(N)c(Sc5cc(F)cc(F)c5)cc34)c(NC3CCOCC3)c2)CC1 [Compound 14-11]: 88%
CN1CCN(c2ccc(C(=O)Nc3n[nH]c4ncc(Cc5cc(F)cc(F)c5)cc34)c(NC3CCOCC3)c2)CC1 [Compound 30-9]: 98%
CN1CCN(c2ccc(C(=O)Nc3n[nH]c4ncc(S(=O)(=O)Nc5cc(F)cc(F)c5)cc34)c(NC3CCOCC3)c2)CC1 [Compound 30-8]: 96.6%
CN1CCN(c2ccc(C(=O)Nc3n[nH]c4ncc(S(=O)(=O)c5cc(F)cc(F)c5)cc34)c(NC3CCOCC3)c2)CC1 [Compound 27-1]: 93%

--- query ---
Qu. // returns reported inhibition at 0.01 µM for input CN1CCN(c2ccc(C(=O)Nc3n[nH]c4ncc(Sc5cc(F)cc(F)c5)cc34)c(NC3CCOCC3)c2)CC1 [Compound 30]
Ans. 84%

Data origin, for the record: patent US9381195B2
